measured.target: Asyn fibrils (Homo sapiens)
experiment: Radioligand competition binding on Asyn fibrils with [3H]1
endpoint: pKd
Remember the convention: pKd equals -log10 of concentration in molar.

Prompt: Look up and state reported pKd for "COc1ccc(/C=C/c2cc(-c3nccs3)on2)cc1"
Response: 7.33
